Test system: BALB/cJ mice, ADJ-PC-6 ip tumor, median survival T/C
Assay: NCI In Vivo Anticancer Drug Screen. Data for tumor model ADJ-PC-6 (intraperitoneal) in BALB/cJ mice
Conditions: endpoint: median survival time; dose: 10.0 mg/kg/injection; schedule: Q04DX003 (ip); vehicle: saline
Method: The antitumor activity of compounds was measured in mice bearing transplantable tumors. Survival or tumor size were measured and the results are expressed as the measurement made in the treated group (T) divided by the measurement made in the vehicle treated control group (C). The tumor model used in this assay is ADJ-PC-6 (intraperitoneal) in BALB/cJ mice
Toxic doses and inconclusive results are not listed. The calls were made as follows: active = survival T/C of 150% or more; inactive = T/C below 125% in these data.
Outcome codes: active, inactive

• CC[C@](O)(C(=O)O)c1cc2n(c(=O)c1CO)Cc1cc3ccccc3nc1-2 = active
• N[C@@H](Cc1ccc(N(CCCl)CCCl)cc1)C(=O)O = active
• COc1cc([C@@H]2c3cc4c(cc3[C@@H](OC3OC5COC(C)OC5C(O)C3O)[C@H]3COC(=O)[C@H]23)OCO4)cc(OC)c1O (some centres not stated) = active
• CCCCCCCC(=O)N/N=C(\CO)[C@]1(O)Cc2c(O)c3c(c(O)c2[C@@H](OC2CC(N)C(O)C(C)O2)C1)C(=O)c1c(OC)cccc1C3=O (some centres not stated) = active
• O=P1(N(CCCl)CCCl)NCCCO1 (configuration not stated) = inactive
• CC(=O)N(C)c1ccc(Nc2cc(C)[nH]c3ccc4ncnc4c23)cc1 = inactive
• Nc1ncn(C2OC(CO)C(O)C2O)c(=O)n1 (configuration not stated) = active
